All values here come from ChEMBL document CHEMBL1128242.

Below is a list of entries, each paired with its recorded Distribution of radioactivity value.
# System: Rattus norvegicus
# Protocol: Distribution of radioactivity was determined in heart at 3h after intravenous administration of [125I]-labeled 2-oleoglycerol 1,3-Bis-[omega-(3-amino-2,4,6-triiodophenyl)alkanoates] in rats
# Assay type: ADME, organism-based
# Condition description: in vivo
Numeric answer only, unit % dose/g assumed.

Compound	Units of measure	Distribution of radioactivity
CCCCCCCC/C=C/CCCCCCCC(=O)OC(COC(=O)CCCCc1c(I)cc(I)c(N)c1I)COC(=O)CCCCc1c(I)cc(I)c(N)c1I	% dose/g	0.09

Observed Distribution of radioactivity on Rattus norvegicus for CCCCCCCC/C=C/CCCCCCCC(=O)OC(COC(=O)CCCCCCc1c(I)cc(I)c(N)c1I)COC(=O)CCCCCCc1c(I)cc(I)c(N)c1I , please.
0.22

Could you do the same for CCCCCCCC/C=C/CCCCCCCC(=O)OC(COC(=O)Cc1c(I)cc(I)c(N)c1I)COC(=O)Cc1c(I)cc(I)c(N)c1I , please?
0.1

Could you do the same for CCCCCCCC/C=C/CCCCCCCC(=O)OC(COC(=O)CCCCCc1c(I)cc(I)c(N)c1I)COC(=O)CCCCCc1c(I)cc(I)c(N)c1I , please?
0.2

Could you do the same for CCCCCCCC/C=C/CCCCCCCC(=O)OC(COC(=O)C(CC)Cc1c(I)cc(I)c(N)c1I)COC(=O)C(CC)Cc1c(I)cc(I)c(N)c1I (stereo not given) , please?
0.25

###

Below is a list of entries, each paired with its recorded Radioactivity value.
# System: Rattus norvegicus
# Protocol: Polyacrylamide Gel Electrophoresis (PAGE) to determined the concentration of low density lipoprotein (LDL) in rats after iv administration of [125I]-labeled 2-Oleolyl 1,3-disubstituted triglycerols was reported
# Type: ADME, organism-based
# Condition description: in vivo
# answer = value followed by unit

Use these answered entries as a reference point.
Molecule	Reported
CCCCCCCC/C=C/CCCCCCCC(=O)OC(COC(=O)CCCCc1c(I)cc(I)c(N)c1I)COC(=O)CCCCc1c(I)cc(I)c(N)c1I	8.1%
CCCCCCCC/C=C/CCCCCCCC(=O)OC(COC(=O)CCCCCCc1c(I)cc(I)c(N)c1I)COC(=O)CCCCCCc1c(I)cc(I)c(N)c1I	0.2%

# Radioactivity lookup, item CCCCCCCC/C=C/CCCCCCCC(=O)OC(COC(=O)Cc1c(I)cc(I)c(N)c1I)COC(=O)Cc1c(I)cc(I)c(N)c1I
0.6%

Could you do the same for CCCCCCCC/C=C/CCCCCCCC(=O)OC(COC(=O)CCCCCc1c(I)cc(I)c(N)c1I)COC(=O)CCCCCc1c(I)cc(I)c(N)c1I , please?
4.8%

Could you do the same for CCCCCCCC/C=C/CCCCCCCC(=O)OC(COC(=O)CCc1c(I)cc(I)c(N)c1I)COC(=O)CCc1c(I)cc(I)c(N)c1I , please?
8.3%

Could you do the same for CCCCCCCC/C=C/CCCCCCCC(=O)OC(COC(=O)CCCc1c(I)cc(I)c(N)c1I)COC(=O)CCCc1c(I)cc(I)c(N)c1I , please?
3.2%

Could you do the same for CCCCCCCC/C=C/CCCCCCCC(=O)OC(COC(=O)C(CC)Cc1c(I)cc(I)c(N)c1I)COC(=O)C(CC)Cc1c(I)cc(I)c(N)c1I (configuration not stated) , please?
7.4%
